target: 20S catalytic subunit of the proteasome (multicatalytic proteinase complex) (Bos taurus, UniProt Q32KL2)
Construct: was purified to homogeneity from bovine brain according to published methods; from tissue; host or cells: bovine brain
test: 20S proteasome chymotryptic activity, fluorogenic peptide cleavage
Type: biochemical, bovine
settings: 50 μM succinyl-leu-leu-val-tyr-7-amino-4-methyl coumarin, 15 minutes at 37° C, pH7.5
endpoint: IC50

1) CCCC[C@@H](NC(=O)[C@H](CC(C)C)NC(=O)CC1CC(=O)c2ccc(OC)cc21)C(=O)NCC(N)=O (some centres unmarked) [Compound 86] | > 10 µg/mL
2) COc1ccc2c(c1)C(CC(=O)NC1CCCC1)CC2=O (centres unmarked) [Compound 74] | > 10 µg/mL
3) COc1ccc2c(c1)C(CC(=O)NCCN1CCCC1)CC2=O (centres unmarked) [Compound 112] | > 10 µg/mL
4) COc1ccc2c(c1)C(CC(=O)NC(CC(C)C)C(=O)NC(C)(C)C(N)=O)CC2=O (mixture of isomers) [Compound 28] | > 10 µg/mL
5) COc1ccc2c(c1)C(CC(=O)NC(CO)C(O)c1ccccc1)CC2=O (mixture of isomers) [Compound 165] | > 50 µg/mL
6) CCCCC(NC(=O)C(CC(C)C)NC(=O)CC1CC(=O)c2ccc(OC)cc21)C(N)=O (mixture of isomers) [Compound 134] | > 10 µg/mL
7) COc1ccc2c(c1)C(CC(=O)NC(CC(C)C)C(=O)NC(CC(C)C)C(=O)N(Cc1ccccc1)Cc1ccccc1)CC2=O (mixture of isomers) [Compound 177] | 1 µg/mL
8) COc1ccc2c(c1)C(CC(=O)NC1CCc3ccccc31)CC2=O (centres unmarked) [Compound 83] | > 10 µg/mL
9) COc1ccc2c(c1)C(CC(=O)NC(CCCCN)C(=O)NC(CC(C)C)C(N)=O)CC2=O (mixture of isomers) [Compound 100] | > 10 µg/mL
10) COc1ccc2c(c1)C(CC(=O)NC(CC(C)C)C(=O)NC(CC(C)C)C(=O)Nc1ccccc1)CC2=O (mixture of isomers) [Compound 184] | > 10 µg/mL
11) COc1ccc2c(c1)C(CC(=O)NC(CC(C)C)C(=O)NC(CC(=O)O)C(N)=O)CC2=O (mixture of isomers) [Compound 130] | > 10 µg/mL

---

Below, each entry is listed alongside its reported IC50.
target: 20S catalytic subunit of the proteasome (multicatalytic proteinase complex) (Bos taurus)
Construct: was purified to homogeneity from bovine brain according to published methods; from tissue; host or cells: bovine brain
test: 20S proteasome chymotryptic activity, fluorogenic peptide cleavage
Assay type: biochemical, bovine
settings: 50 μM succinyl-leu-leu-val-tyr-7-amino-4-methyl coumarin, 15 minutes at 37° C, pH7.5
endpoint: IC50

1. COc1ccc2c(c1)C(CC(=O)NCc1ccccc1)CC2=O (stereo not shown) [Compound 38] | > 10 µg/mL
2. COc1ccc2c(c1)C(CC(=O)NC(Cc1ccccc1)C(N)=O)CC2=O (mixture of isomers) [Compound 24] | > 10 µg/mL
3. COc1ccc2c(c1)C(CC(=O)NC(CC(C)C)C(=O)NC(CCC(N)=O)C(N)=O)CC2=O (mixture of isomers) [Compound 137] | > 10 µg/mL
4. COc1ccc2c(c1)C(CC(=O)N1CCc3ccccc31)CC2=O (racemic) [Compound 160] | > 10 µg/mL
5. COc1ccc2c(c1)C(CC(=O)NC(CCC(=O)O)C(=O)NC(CC(C)C)C(N)=O)CC2=O (mixture of isomers) [Compound 97] | > 10 µg/mL
6. COc1ccc2c(c1)C(CC(=O)N1CCc3ccccc31)CC2=O (stereo not shown) [Compound 77] | > 10 µg/mL
7. CCCCC(NC(=O)CC1CC(=O)c2ccc(OC)cc21)C(N)=O (mixture of isomers) [Compound 9] | > 10 µg/mL
8. COc1ccc2c(c1)C(CC(=O)NC(CC(C)C)C(=O)NC(CC(C)C)C(=O)NC1CCc3ccccc31)CC2=O (mixture of isomers) [Compound 187] | 0.5 µg/mL
9. COc1ccc2c(c1)C(CC(=O)N1Cc3ccccc3CC1C(=O)NC(CC(C)C)C(N)=O)CC2=O (mixture of isomers) [Compound 60] | > 10 µg/mL
10. CCCCC(NC(=O)CC1CC(=O)c2ccc(OC)cc21)C(=O)NC(CC(C)C)C(N)=O (mixture of isomers) [Compound 23] | > 10 µg/mL
11. COc1ccc2c(c1)C(CC(=O)NC(CC(C)C)C(=O)NC(CCCCN)C(N)=O)CC2=O (mixture of isomers) [Compound 138] | > 10 µg/mL
12. COc1ccc2c(c1)C(CC(=O)NCc1ccccc1OC)CC2=O (stereo not shown) [Compound 107] | > 10 µg/mL
13. COc1ccc2c(c1)C(CC(=O)N1CCOCC1)CC2=O (stereo not shown) [Compound 63] | > 10 µg/mL
14. COc1ccc2c(c1)C(CC(=O)NC(Cc1ccccc1)C(=O)NC(CC(C)C)C(N)=O)CC2=O (mixture of isomers) [Compound 27] | 10 µg/mL
15. COc1ccc2c(c1)C(CC(=O)NCCc1ccc(OC)c(OC)c1)CC2=O (stereo not shown) [Compound 72] | > 10 µg/mL
16. COc1ccc2c(c1)C(CC(=O)NC(CC(C)C)C(=O)N(Cc1ccccc1)Cc1ccccc1)CC2=O (mixture of isomers) [Compound 199] | > 10 µg/mL
17. COc1ccc2c(c1)C(CC(=O)NC(CC(C)C)C(=O)NC(CC(C)C)C(=O)NC(Cc1ccccc1)C(N)=O)CC2=O (mixture of isomers) [Compound 127] | > 10 µg/mL
18. COc1ccc2c(c1)C(CC(=O)N(CCO)Cc1ccccc1)CC2=O (racemic) [Compound 166] | > 50 µg/mL
19. COc1ccc2c(c1)C(CC(=O)N1CCCC1C(N)=O)CC2=O (mixture of isomers) [Compound 55] | > 10 µg/mL
20. COc1ccc2c(c1)C(CC(=O)N(C)C)CC2=O (racemic) [Compound 167] | > 50 µg/mL
21. COc1ccc(NC(=O)CC2CC(=O)c3ccc(OC)cc32)cc1 (stereo not shown) [Compound 121] | > 10 µg/mL
22. COc1ccc2c(c1)C(CC(=O)NC(CC(C)C)C(=O)NC(C(N)=O)c1ccccc1)CC2=O (mixture of isomers) [Compound 140] | > 10 µg/mL
